assay: Antagonist activity at AR in bicalutamide-resistant human LNCAP cells assessed as effect on cell proliferation after 6 days
pIC50: −log10 of the molar value.
outcome measure: pIC50

• CC1(C)C(=O)N(c2ccc(C#N)c(C(F)(F)F)c2)C(=S)N1CCCCS(N)(=O)=O = 6.96
• CC1(C)C(=O)N(c2ccc(C#N)c(Cl)c2)C(=S)N1CCCS(N)(=O)=O = 7.92
• CC1(C)C(=O)N(c2ccc(C#N)c(C(F)(F)F)c2)C(=S)N1CCCNS(N)(=O)=O = 7.05
• Cc1cc(N2C(=O)C(C)(C)N(CCCS(N)(=O)=O)C2=S)ccc1C#N = 7.29
• CC1(C)C(=O)N(c2ccc(C#N)c(C(F)(F)F)c2)C(=S)N1CCCC(N)=O = 7.26
• CC1(C)C(=O)N(c2ccc(C#N)c(C(F)(F)F)c2)C(=S)N1CCCS(N)(=O)=O = 7.74
• CC1(C)C(=O)N(c2ccc(C#N)c(C(F)(F)F)c2)C(=S)N1CCS(N)(=O)=O = 7.10
• CC1(C)C(=O)N(c2ccc(C#N)c(C(F)(F)F)c2)C(=S)N1CCCC(=O)O = 6.40
• CC1(C)C(=O)N(c2ccc(C#N)c(C(F)(F)F)c2)C(=S)N1CCCNC(N)=O = 6.70
• CNS(=O)(=O)CCCN1C(=S)N(c2ccc(C#N)c(C(F)(F)F)c2)C(=O)C1(C)C = 7.52

* * *

Listed next: entries and their corresponding IC50.
assay: Antagonist activity at AR in human LNCAP cells assessed as effect on cell proliferation after 6 days
outcome measure: IC50 (nM)

* Cc1c(N2C(=O)C(C)(C)N(CCCS(N)(=O)=O)C2=S)ccc(C#N)c1C(F)(F)F | 1100
* CC1(C)C(=O)N(c2ccc(C#N)c(C(F)(F)F)c2)C(=S)N1CCCCS(N)(=O)=O | 1400
* CC1(C)C(=O)N(c2ccc(C#N)c(Cl)c2)C(=S)N1CCCS(N)(=O)=O | 410
* CC1(C)C(=O)N(c2ccc(C#N)c(C(F)(F)F)c2)C(=S)N1CCCC(N)=O | 400
* CC1(C)C(=O)N(c2ccc(C#N)c(C(F)(F)F)c2)C(=S)N1CCCNS(N)(=O)=O | 780
* CC1(C)C(=O)N(c2ccc(C#N)c(C(F)(F)F)c2)C(=S)N1CCCNC(N)=O | 1600
* CNS(=O)(=O)CCCN1C(=S)N(c2ccc(C#N)c(C(F)(F)F)c2)C(=O)C1(C)C | 190
* CN(C)S(=O)(=O)CCCN1C(=S)N(c2ccc(C#N)c(C(F)(F)F)c2)C(=O)C1(C)C | 3700
* Cc1cc(N2C(=O)C(C)(C)N(CCCS(N)(=O)=O)C2=S)ccc1C#N | 300
* CC1(C)C(=O)N(c2ccc(C#N)c(C(F)(F)F)c2)C(=S)N1CCCS(N)(=O)=O | 160
* CC1(C)C(=O)N(c2ccc(C#N)c(C(F)(F)F)c2)C(=S)N1CCCC(=O)O | 2000
